Reported yeast fitness values are given for each entry in this list.
B1: tRNA (parent)
chain: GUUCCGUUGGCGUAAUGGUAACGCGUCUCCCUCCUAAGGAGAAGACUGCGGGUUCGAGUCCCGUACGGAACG

- Variants of: B1
- assay: yeast fitness relative to wild type (ratio to wild type); higher = fitter; tRNA-Arg(CCU), competitive growth, 37 C, YPD
Fewer inactive variants are shown than the library holds.

The examples below pair each entry with its known result.
{"columns": ["change", "assay.result"],
 "data": [
  ["U2C U19A U26A C29A C46G U54A", "≤ 0.5"],
  ["C11G A14G U26A U35A", "≤ 0.5"],
  ["C5U A15G A20G C27G C33U G63A", "≤ 0.5"],
  ["C4G C5G U26G A45C C61U G67A", "≤ 0.5"],
  ["G9A C22U C30U", 0.519],
  ["U13C C31G A40C A42G G51A", 0.578],
  ["A43C U59C", 0.828],
  ["C5G A20C C24U", "≤ 0.5"],
  ["G17C C66U", 0.705],
  ["U3C C55U", 0.687]
]}

Consider the variant G9A A37C A65C . State its measured yeast fitness.
0.56

Find the measured yeast fitness of C11U C33U A36G G39A G44A C55G U59C and report it.
≤ 0.5

Read the entry U7G G12C G23C C29G C60A and write its reported yeast fitness.
≤ 0.5

Name the recorded yeast fitness of the variant listed here: A57C C62U
0.565

Answer with the recorded yeast fitness for the variant listed here: C34A C46G
0.693

Give the measured yeast fitness for G10C G17A U28G G39A C49A
≤ 0.5

Provide one value: measured yeast fitness of A20C C24G A37G
≤ 0.5

Indicate the recorded yeast fitness value for this variant: U3C A40G C46A C62G A69U
≤ 0.5
